B1: ATL3 (parent)
chain: EKALASILLQDHIRDLDVVVVSVA

- Variants of: B1
- assay: protein stability index of a GFP-peptide fusion (GPS, HEK-293T) (PSI 1-6); higher = more stable;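 also: lentivirally expressed fusions sorted by FACS into six bins by GFP to DsRed ratio, PSI derived from sequencing read proportions per bin multiplied by bin number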
- condition.description: c terminus: a fixed tail appended
Decide by protein stability index: equal to or exceeding 2 means 1.0, less means 0.0.

[[record]]
change = "I7N"
category_label = 0.0

[[record]]
change = "D15I"
category_label = 1.0

[[record]]
change = "L4Y"
category_label = 0.0

[[record]]
change = "L9P"
category_label = 0.0

[[record]]
change = "V20H"
category_label = 1.0

[[record]]
change = "V23P"
category_label = 1.0

[[record]]
change = "A5E"
category_label = 1.0

[[record]]
change = "V20L"
category_label = 1.0

[[record]]
change = "R14T"
category_label = 0.0

